Source: patent US20250281483A1

- TARGET: TFEB (Homo sapiens, UniProt P19484)
- PROTOCOL NOTES: Tfeb-Translocation Assay HEK-293T-oEX-Tfeb-GFP Cell Line
- Format: cell-based
- DETAILS: HEK-293T-oEX-TFEB-GFP cells; translocation positive cells ratio; read-out: TFEB Translocation EC50
pEC50: −log10 of the molar value.
ATTRIBUTE MEASURED: pEC50

COMPOUND | ENDPOINT VALUE
Cc1nc2ccn(Cc3ccccc3)c(=O)c2cc1C(=O)NCc1ccc(Cl)cc1 [Example 22] | > 7.00

Each compound below has a reported value. Please supply its pEC50.
1. Cc1nc2ccn(CC3CCCO3)c(=O)c2cc1C(=O)NCc1ccc(Cl)cc1 (centres unmarked) [Example 11]
2. COCCn1ccc2nc(C)c(C(=O)NCc3cnc(C)o3)cc2c1=O [Example 21]
3. COCCn1ccc2nc(C)c(C(=O)NCc3ccc(C)o3)cc2c1=O [Example 72]
4. COCCOCCOCCn1ccc2nc(C)c(C(=O)NCc3ccc(Cl)cn3)cc2c1=O [Example 59]

1: 5.00 to 6.00; 2: ≤ 5.00; 3: 6.00 to 7.00; 4: ≤ 5.00

---

- PROTOCOL NOTES: In Vitro Liver Microsomes Metabolic Stability Assay, human
- Type: in vitro ADME
- DETAILS: human liver microsomes 0.5 mg/mL, 1 μM compound, NADPH, 0 and 30 min; scale-up CLint; read-out: CLint, Human LM
ATTRIBUTE MEASURED: CLint scaled at 1 μM
Your answer should be a number followed by the unit of measure.

// lookup CLint scaled at 1 μM for Cc1nc2ccn(Cc3ccco3)c(=O)c2cc1C(=O)NCC1CCC(Cl)CC1 (stereo not shown) [Comparator 2, reference compound]
77 mL/min/kg

---

- TARGET: TFEB (Homo sapiens)
- PROTOCOL NOTES: Tfeb-Translocation Assay HEK-293T-oEX-Tfeb-GFP Cell Line
- Type: cell-based
- DETAILS: HEK-293T-oEX-TFEB-GFP cells; translocation positive cells ratio; read-out: TFEB Translocation EC50
ATTRIBUTE MEASURED: EC50

COMPOUND | EC50
Cc1nc2ccn(Cc3ccccc3)c(=O)c2cc1C(=O)NCc1cc(F)c(F)cn1 [Example 50] | < 100 nM
Cc1nc2ccn(Cc3ccc(Cl)cc3)c(=O)c2cc1C(=O)NCc1ccc(F)cn1 [Example 51] | < 100 nM
Cc1nc2ccn(Cc3cccnc3)c(=O)c2cc1C(=O)NCc1ccccn1 [Example 58] | ≥ 10000 nM

Each compound below has a reported value. Please supply its EC50.
1. Cc1nc2ccn(Cc3ccc(F)c(F)c3)c(=O)c2cc1C(=O)NCc1cc(F)c(F)cn1 [Example 62]
2. Cc1nc2ccn(Cc3ccccc3)c(=O)c2cc1C(=O)NCc1ccn(C)n1 [Example 14]

1: < 100 nM; 2: 100 to 1000 nM

Each compound below has a reported value. Please supply its EC50.
1. Cc1nc2ccn(Cc3ccncc3)c(=O)c2cc1C(=O)NCc1ccccn1 [Example 52]
2. Cc1nc2ccn(Cc3ccc(F)c(F)c3)c(=O)c2cc1C(=O)NCc1ccc(F)cn1 [Example 63]
3. Cc1noc(CNC(=O)c2cc3c(=O)n(Cc4ccccc4)ccc3nc2C)n1 [Example 10]
4. Cc1nc2ccn(Cc3ccccc3)c(=O)c2cc1C(=O)NCc1ccccc1F [Example 16]

1: ≥ 10000 nM; 2: < 100 nM; 3: 100 to 1000 nM; 4: 100 to 1000 nM

// lookup EC50 for Cc1nnc(CNC(=O)c2cc3c(=O)n(Cc4ccccc4)ccc3nc2C)o1 [Example 13]
1000 to 10000 nM

---

- TARGET: TFEB (Homo sapiens)
- Sequence (P19484 1-476): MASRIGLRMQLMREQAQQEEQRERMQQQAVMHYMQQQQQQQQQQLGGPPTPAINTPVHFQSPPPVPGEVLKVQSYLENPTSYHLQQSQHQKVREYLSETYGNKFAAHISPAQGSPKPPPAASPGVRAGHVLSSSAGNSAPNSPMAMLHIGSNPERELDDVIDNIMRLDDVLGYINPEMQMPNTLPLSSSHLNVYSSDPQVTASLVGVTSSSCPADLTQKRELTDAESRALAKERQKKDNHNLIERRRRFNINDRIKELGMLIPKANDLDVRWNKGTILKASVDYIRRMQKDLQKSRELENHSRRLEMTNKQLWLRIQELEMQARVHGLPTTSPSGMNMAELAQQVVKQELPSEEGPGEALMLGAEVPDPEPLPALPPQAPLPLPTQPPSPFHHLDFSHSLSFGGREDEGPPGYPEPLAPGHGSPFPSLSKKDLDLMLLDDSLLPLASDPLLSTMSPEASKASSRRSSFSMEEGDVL
- PROTOCOL NOTES: Tfeb-Translocation Assay HEK-293T-oEX-Tfeb-GFP Cell Line
- Assay type: cell-based
- DETAILS: HEK-293T-oEX-TFEB-GFP cells; translocation positive cells ratio; read-out: TFEB Translocation EC50
ATTRIBUTE MEASURED: EC50

MOLECULE | ENDPOINT VALUE
Cc1nc2ccn(Cc3cccc(F)c3)c(=O)c2cc1C(=O)NCc1ccccn1 [Example 55] | < 0.1 µM

Each molecule below has a reported value. Please supply its EC50.
1. Cc1nc2ccn(Cc3ccccc3)c(=O)c2cc1C(=O)NCCc1ccco1 [Example 73]
2. CNC(=O)c1cc2c(=O)n(Cc3ccccc3)ccc2nc1C [Example 42]

1: 1 to 10 µM; 2: ≥ 10 µM

---

- TARGET: TFEB (Homo sapiens, UniProt P19484)
- PROTOCOL NOTES: Tfeb-Translocation Assay HEK-293T-oEX-Tfeb-GFP Cell Line
- Format: cell-based
- DETAILS: HEK-293T-oEX-TFEB-GFP cells; translocation positive cells ratio; read-out: TFEB Translocation EC50
pEC50: −log10 of the molar value.
ATTRIBUTE MEASURED: pEC50

Some compounds with recorded pEC50:
COMPOUND | ATTRIBUTE MEASURED | ENDPOINT VALUE
Cc1nc2ccn(Cc3ccccc3)c(=O)c2cc1C(=O)NCc1cncnc1 [Example 34] | pEC50 | 6.00 to 7.00
Nc1nc2ccn(Cc3ccccc3)c(=O)c2cc1C(=O)NCc1ccccn1 [Example 74] | pEC50 | 5.00 to 6.00
Cc1nc2ccn(CC3CCCCO3)c(=O)c2cc1C(=O)NCc1ccc(Cl)cc1 (stereo not shown) [Example 26] | pEC50 | 6.00 to 7.00
Cc1nc2ccn(Cc3ccccc3)c(=O)c2cc1C(=O)NCc1ccc(Cl)cn1 [Example 38] | pEC50 | > 7.00

Each compound below has a reported value. Please supply its pEC50.
1. Cc1nc2ccn(Cc3ccccc3F)c(=O)c2cc1C(=O)NCc1ccccn1 [Example 56]
2. Cc1nc2ccn(C(C)c3ccccc3)c(=O)c2cc1C(=O)NCc1ccccn1 (stereo not shown) [Example 37]

1. 6.00 to 7.00
2. 6.00 to 7.00

---

Provide the recorded EC50 for the entries that follow.
- TARGET: TFEB (Homo sapiens)
- Sequence (P19484 1-476): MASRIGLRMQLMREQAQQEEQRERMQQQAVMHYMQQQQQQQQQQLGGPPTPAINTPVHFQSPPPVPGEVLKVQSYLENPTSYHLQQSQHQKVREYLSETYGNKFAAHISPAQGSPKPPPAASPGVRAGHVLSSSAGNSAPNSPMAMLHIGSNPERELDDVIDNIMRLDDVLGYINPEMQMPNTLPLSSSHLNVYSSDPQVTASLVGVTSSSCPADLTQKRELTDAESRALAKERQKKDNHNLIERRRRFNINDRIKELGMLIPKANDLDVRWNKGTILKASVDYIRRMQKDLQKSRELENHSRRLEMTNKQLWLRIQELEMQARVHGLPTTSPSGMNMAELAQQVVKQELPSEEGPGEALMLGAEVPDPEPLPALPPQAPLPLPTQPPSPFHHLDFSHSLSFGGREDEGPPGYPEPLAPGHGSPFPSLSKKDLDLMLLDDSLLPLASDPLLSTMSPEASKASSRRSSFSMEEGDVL
- PROTOCOL NOTES: Tfeb-Translocation Assay HEK-293T-oEX-Tfeb-GFP Cell Line
- Assay type: cell-based
- DETAILS: HEK-293T-oEX-TFEB-GFP cells; translocation positive cells ratio; read-out: TFEB Translocation EC50

Some compounds with recorded EC50:
COMPOUND | ENDPOINT VALUE
Cc1nc2ccn(Cc3ccccc3)c(=O)c2cc1C(=O)NCc1ccccc1 [Example 17] | 100 to 1000 nM
Cc1nc2ccn(Cc3ccccc3)c(=O)c2cc1C(=O)NCc1cn(C)nn1 [Example 8] | 1000 to 10000 nM
Cc1nc2ccn(Cc3ccccc3)c(=O)c2cc1C(=O)NCc1ccc2c(c1)OCO2 [Example 69] | < 100 nM
COCCOCCOc1ccc(CNC(=O)c2cc3c(=O)n(Cc4ccc(Cl)cc4)ccc3nc2C)nc1 [Example 77] | ≥ 10000 nM
Cc1nc(CNC(=O)c2cc3c(=O)n(Cc4cc(F)cc(F)c4)ccc3nc2C)co1 [Example 81] | < 100 nM
Cc1nc2ccn(C(C)C)c(=O)c2cc1C(=O)NCc1ccccn1 [Example 45] | 100 to 1000 nM

Each compound below has a reported value. Please supply its EC50.
1. Cc1nc2ccn(C)c(=O)c2cc1C(=O)NCc1ccccn1 [Example 53]
2. Cc1nc2ccn(Cc3ccccc3)c(=O)c2cc1C(=O)NCc1ccc(C(F)(F)F)cc1 [Example 25]
3. Cc1nc2ccn(Cc3ccc(Cl)cc3)c(=O)c2cc1C(=O)NCc1ccccn1 [Example 31]

≥ 10000 nM
≥ 10000 nM
< 100 nM
